Biological target: T1, CD25 (Homo sapiens, UniProt P01589)
T1 sequence (P01589 22-272): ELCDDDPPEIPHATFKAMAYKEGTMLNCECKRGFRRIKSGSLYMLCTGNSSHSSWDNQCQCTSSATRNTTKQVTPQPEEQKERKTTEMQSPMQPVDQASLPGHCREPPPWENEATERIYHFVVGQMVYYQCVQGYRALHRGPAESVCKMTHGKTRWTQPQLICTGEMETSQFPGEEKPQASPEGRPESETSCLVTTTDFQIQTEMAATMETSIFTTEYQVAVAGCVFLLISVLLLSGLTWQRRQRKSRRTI
Assay: Binding of human IgG1 format antibodies to CD25 by Octet
Conditions: read-out: Biosensor Measured CD25 Affinity
Readout Name: pKd
Please keep in mind that pKd is minus log10 of the molar concentration; only the number is needed.

# query: pKd of entry YU392-A09: anti-CD25 scFv clone, SEQ ID NO: 749 (protein, listed as Mus musculus) scFv: PGATVKISCKVSGYTFTDYYMHWVQQAPGKGLEWMGLVDPEDGETIYAEKFQGRVTITADTSTDTAYMELSSLRSEDTAVYYCATEGRYGMDVWGQGTTVTVSSCATEGRYGMDVWQAVLTQPPSVSGTPGQRVTISCSGNNFNIGNNLVYWYQQLPGTAPKLLIYANDERPSGVPDRFSGSKSGTSASLAISGLRSEDDADYYCATWDDSLSGVVFGGGTKLTALCATWDDSLSGVVF
7.91
